tested on: T. cruzi complex II; type: biochemical, Trypanosoma cruzi; details: read-out: SQR IC50
observable: pIC50
Value format note: pIC50 is -log10 of concentration (mol/L); just state the number.

# lookup: pIC50 of `Cc1cc(O)c2c(c1)O[C@@]1(C)CC[C@H]3C(C)(C)CCC[C@]34CO[C@@H]2[C@H]41`
5.92

----------
molecular target: L. tarentolae respiratory chain complex II; assay: Lineweaver-Burk inhibition pattern, L. tarentolae complex II; format: biochemical, Leishmania tarentolae; conditions: L. tarentolae SQR activity, for quinone (ubiquinone 1); complex of complex II and ubiquinone; read-out: Ki2
observable: Ki

Query: Ki; subject: `Cc1cc(O)c2c(c1)O[C@@]1(C)CC[C@H]3C(C)(C)CCC[C@]34CO[C@@H]2[C@H]41`
102 nM
